molecular target: human PD-L1/His fusion protein (human, UniProt Q9NZQ7 19-239); assay: BLI off-rate; test group 1
Sequence (Q9NZQ7 19-239 limits assumed): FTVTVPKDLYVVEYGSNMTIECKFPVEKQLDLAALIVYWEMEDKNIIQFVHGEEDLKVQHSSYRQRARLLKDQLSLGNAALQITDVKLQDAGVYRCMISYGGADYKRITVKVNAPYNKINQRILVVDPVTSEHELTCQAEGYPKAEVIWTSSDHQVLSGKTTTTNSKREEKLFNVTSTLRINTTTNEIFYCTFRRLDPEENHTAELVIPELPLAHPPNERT
measured.attribute: Off-Rate Ratio to that of EM0005-86c
The reply must contain the numeric value and, after it, the unit.

What the record says about HuEM0005-86-2 (antibody, human IgG1, V domains shown) VH: EVQLVQSGAEVKKPGASVKVSCKASGYTFTTYGINWVRQAPGQGLEWMGYIYIGNGYTEYNEKFKGRVTMTSDTSTSTAYMELSSLRSDDTAVYYCARDLMVIAPKTMDYWGQGTTVTVSS VL: DIQMTQSPSSVSASVGDRVTITCKASQDVGTAVAWYQQKPGKAPKLLIYWASTRHTGVPDRFTGSGSGTDFTLTISSLQPEDFATYYCQQYSSYPYTFGGGTKVEIK : Off-Rate Ratio to that of EM0005-86c is 72%
